Values were extracted from patent US20040039001A1.

Counter-ions that a name gives are not always drawn.
measure: melting point

I have this molecule here, CS(=O)(=O)c1ccc2nc(NC(=N)N)nc(-c3ccccc3)c2c1 (as salt: HCl) , and I need its recorded melting point. 180 to 185 °C

I have this molecule here, Cl.N=C(N)Nc1nc(-c2ccccc2)c2c(O)cccc2n1 , and I need its recorded melting point. 310 °C

I have this molecule here, CN=C(NC)Nc1nc(-c2ccccc2)c2cc(Cl)ccc2n1.Cl , and I need its recorded melting point. 264 to 267 °C

I have this molecule here, C[S+]([O-])c1ccc2nc(NC(=N)N)nc(-c3ccccc3)c2c1 (stereo not shown) , and I need its recorded melting point. 175 to 180 °C
